Biological target: Human α2δ-1 subunit of Cav2.2 calcium channel (Homo sapiens (Human), UniProt P54289)
Sequence (P54289 25-1103): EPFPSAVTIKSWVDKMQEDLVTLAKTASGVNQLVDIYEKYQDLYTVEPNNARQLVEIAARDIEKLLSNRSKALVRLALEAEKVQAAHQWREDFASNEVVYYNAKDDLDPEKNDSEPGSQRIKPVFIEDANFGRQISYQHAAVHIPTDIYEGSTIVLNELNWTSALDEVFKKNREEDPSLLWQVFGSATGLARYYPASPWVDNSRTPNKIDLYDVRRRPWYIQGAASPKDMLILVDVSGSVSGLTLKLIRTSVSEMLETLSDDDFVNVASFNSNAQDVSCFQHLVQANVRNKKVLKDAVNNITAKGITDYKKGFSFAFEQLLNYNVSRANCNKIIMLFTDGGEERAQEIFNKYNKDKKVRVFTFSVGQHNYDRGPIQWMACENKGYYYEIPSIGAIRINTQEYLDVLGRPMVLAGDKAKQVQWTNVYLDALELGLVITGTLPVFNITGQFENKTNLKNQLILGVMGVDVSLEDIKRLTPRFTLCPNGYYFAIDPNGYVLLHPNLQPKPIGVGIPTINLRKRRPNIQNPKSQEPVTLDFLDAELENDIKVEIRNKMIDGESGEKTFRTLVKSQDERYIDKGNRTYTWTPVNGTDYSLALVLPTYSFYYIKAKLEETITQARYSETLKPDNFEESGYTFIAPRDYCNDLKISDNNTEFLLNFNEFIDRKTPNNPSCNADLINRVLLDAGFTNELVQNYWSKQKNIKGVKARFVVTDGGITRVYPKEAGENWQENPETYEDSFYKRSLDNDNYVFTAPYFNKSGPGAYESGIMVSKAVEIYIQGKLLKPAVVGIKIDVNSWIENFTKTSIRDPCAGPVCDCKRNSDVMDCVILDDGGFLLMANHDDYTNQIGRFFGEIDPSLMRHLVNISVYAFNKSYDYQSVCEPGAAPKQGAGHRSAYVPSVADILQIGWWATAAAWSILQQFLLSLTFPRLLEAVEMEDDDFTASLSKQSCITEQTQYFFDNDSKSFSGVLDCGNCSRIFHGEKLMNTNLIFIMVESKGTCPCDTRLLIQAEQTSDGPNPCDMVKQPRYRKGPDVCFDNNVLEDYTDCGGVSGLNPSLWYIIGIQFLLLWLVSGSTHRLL
Experiment: Binding Assay to Human α2δ-1 Subunit of Cav2.2 Calcium Channel
Settings: Table 1; human α2δ-1 enriched membranes, 15 nM [3H]-Gabapentin; read-out: Ki(nM) alpha2delta Hum
Kindly supply the reported Ki values for the records listed here.

Consider the reported Ki for these molecules:
Prompt line: What value of Ki has been recorded for this entry: CCNc1ccc2c(n1)N(C)CCN(Cc1ccc(O[C@@H](CCNC)c3cccs3)cc1)C2=O
Response line: 100 to 500 nM

Prompt line: What does the record list as Ki for CNCCC(Oc1cccc(N2CCCN(C)CC2)c1)c1ccccc1 (stereo not drawn) ?
Response line: 500 to 3000 nM

Prompt line: Need Ki of CNCC[C@H](OCc1cccc(N2C[C@@H]3CCCN3c3ccccc3C2=O)c1)c1ccccc1 , thanks.
Response line: > 3000 nM

Prompt line: Record request: Ki value, item CNCC[C@H](Oc1ccc(CN2CCCn3nc(OC)cc3C2=O)c(C)c1)c1cccs1
Response line: < 100 nM

Prompt line: Which Ki value is on record for CCNC1CCCN(c2cccc(O[C@@H](CCNC)c3cccs3)c2)C(=O)C1 (single isomer, unassigned) [Example 118a] ?
Response line: 500 to 3000 nM

Below are some molecules; for each one, tell me its Ki.
1. CNCCC(Oc1cccc(N2CCN(C)c3ccccc3C2)c1)c1cccs1 (stereo not drawn)
2. CNCCC(Oc1ccc(CN2CCN(C)CCC2=O)cc1)c1cccs1 (stereo not drawn)
3. CNCCC(OCc1cccc(N2CCCN(C)CC2)c1)c1ccccc1 (stereo not drawn)

Response line:
1: > 3000 nM; 2: 100 to 500 nM; 3: 500 to 3000 nM

Respectfully, I request Ki for each entry included below.
1. CNCC(OCc1ccc(CN2CCN(C)c3ccccc3C2=O)cc1)c1ccccc1 (stereo not drawn)
2. CNCCC(OCc1cccc(CN2CCN(C)c3ccccc3C2=O)c1)c1ccccc1 (stereo not drawn)
3. CNCCC(Oc1ccc(CN2CCN(C)c3ncccc3C2=O)cc1)c1ccc(F)cc1 (stereo not drawn)
4. CNCCC(Oc1cccc(N2CC(=O)N(C)c3ccccc3C2=O)c1)c1cccs1 (stereo not drawn)
5. CNCC[C@H](OCc1cccc(N2CCCN(C)CC2)c1)c1ccccc1
6. CNCC[C@H](Oc1ccc(CN2CCN(C)c3c(ccnc3OC)C2=O)c(F)c1)c1ccccc1
7. CNCC[C@H](Oc1ccc(CN2CCN(C)c3ncccc3C2=O)c(F)c1)c1ccccc1
8. CNCCC(Oc1cccc(N2CCN(C)CCC2=O)c1)c1ccccc1 (stereo not drawn)

Response line:
> 3000 nM
> 3000 nM
500 to 3000 nM
> 3000 nM
> 3000 nM
> 3000 nM
< 100 nM
> 3000 nM

Provide Ki values for the following items, in order.
1. CNCC[C@H](Oc1ccc(CN2CCN(C)c3ncccc3C2=O)c(C(F)(F)F)c1)c1cccs1
2. CNCCC(Oc1cccc(N2CCN(C)c3nc(C)ccc3C2=O)c1)c1ccsc1 (stereo not drawn)

Response line:
< 100 nM
100 to 500 nM

Source: patent US11401270B2
